system_name: BRD4 (BD1) (Homo sapiens)
Construct: with relatively long constructs also being possible, preferably amino acids 44-168
assay_details: Binding assay BRD4/acetylated peptide H4 (TR-FRET protein-protein interaction assay)
// reported IC50 per item
Reply with just the number (in nM).

# annotated cases, reported IC50 shown
1) CNC(=O)N1N=C(c2ccc(-c3ccc(C)nc3)cc2)c2cc(OC)c(OC)cc2CC1C (racemic); 50
2) CNC(=O)N1N=C(c2ccc(-c3ccc(NS(C)(=O)=O)cc3)cc2)c2cc(OC)c(OC)cc2CC1C (racemic); 40
3) CNC(=O)N1N=C(c2ccc(N3CCOCC3=O)cc2)c2cc(OC)c(OC)cc2CC1C (racemic); 280

As a next step, examine the compound that follows.
Q) Which measured IC50 value corresponds to CNC(=O)N1N=C(c2ccc(N3CCC(O)CC3)cc2)c2cc(OC)c(OC)cc2C[C@@H]1C ?
A) 20

Origin of values: patent US9890147B2
